Origin of measurements: patent US4356186A

- experiment: Acute lethal toxicity
- Format: in vivo
- details: rat, in vivo; single oral administration, mortality on the 7th day, Litchfield and Wilcoxon
resultType: LD50 at 168 h (mg/kg)
Give the value in mg/kg but do not write mg/kg after it.

Looking for the measured LD50 at 168 h of CC(C(=O)OCCc1ccccc1)c1ccc2c(c1)SCC1CCCCC1C2=O (stereo not shown) , can you help?
230

###

- System: carrageenin-induced hind paw edema
- experiment: Anti-inflammatory activity (carrageenin-induced hind paw edema in rats)
- Type: in vivo, Male Wistar rats
- details: Rattus norvegicus, po, 3 h; 2 mg/kg p.o., three hours; read-out: Inhibitory rate, three hours after the carrageenin injection
Please mark YES if the recorded inhibition in vivo at 2 mg/kg is equal to or greater than 20%, and NO if it falls below.

Record CCCCOC(=O)C(C)c1ccc2c(c1)SCC1CCCCC1C2=O (stereo not drawn) [J] ; criterion: inhibition in vivo at 2 mg/kg no lower than 20%. Met?
NO

Another molecule to look at: C=CCOC(=O)C(C)c1ccc2c(c1)SCC1CCCCC1C2=O (stereo not drawn) [K]
YES

Another molecule to look at: CC(C(=O)OCc1ccccn1)c1ccc2c(c1)SCC1CCCCC1C2=O (stereo not drawn) [O]
YES

Another molecule to look at: CC(C(=O)OCCN1CCOCC1)c1ccc2c(c1)SCC1CCCCC1C2=O (stereo not drawn) [Q]
YES

Another molecule to look at: CC(C(=O)NO)c1ccc2c(c1)SCC1CCCCC1C2=O (stereo not drawn) [S]
NO

Another molecule to look at: CC(C(=O)OCCOCCO)c1ccc2c(c1)SCC1CCCCC1C2=O (stereo not drawn) [N]
NO
